These data points were gathered from patent US9409892B2.

The following molecules are shown together with reported IC50 values.
assaySystem: PHD1 (EGLN2) (Homo sapiens (Human))
Sequence (Q96KS0 whole entry): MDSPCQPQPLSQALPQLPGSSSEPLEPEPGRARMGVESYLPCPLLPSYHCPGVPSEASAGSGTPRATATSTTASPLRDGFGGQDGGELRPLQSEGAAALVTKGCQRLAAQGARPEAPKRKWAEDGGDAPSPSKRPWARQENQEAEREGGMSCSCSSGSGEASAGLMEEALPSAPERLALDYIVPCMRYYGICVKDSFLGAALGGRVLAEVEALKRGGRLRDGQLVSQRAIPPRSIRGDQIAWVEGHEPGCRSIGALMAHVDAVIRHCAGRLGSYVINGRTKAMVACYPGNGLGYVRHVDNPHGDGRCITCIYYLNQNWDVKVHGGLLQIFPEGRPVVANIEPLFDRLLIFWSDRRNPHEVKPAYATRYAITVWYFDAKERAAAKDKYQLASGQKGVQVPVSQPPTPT
assayName: HIF-PH assay (14CO2 capture), PHD1 enzyme inhibition
Format: biochemical
measurementContext: Table 1; individual measurement; read-out: IC50 (μM) PHD1
reportedEndpoint: IC50 (µM)

1. C[C@H](C(=O)O)[C@@H](C)NC(=O)c1nc(C#N)c2cc(Oc3ccccc3)ccc2c1O: 1.86
2. CC(C)(CNC(=O)c1ncc2cc(Oc3ccc(Cl)c(F)c3)ccc2c1O)C(=O)O: 2.77
3. N[C@@H](CNC(=O)c1ncc2cc(Oc3ccccc3)ccc2c1O)C(=O)O: 33.9
4. O=C(O)CCNC(=O)c1ncc2cc(NC(=O)NC3CCCCC3)ccc2c1O: 4.91
5. CC(C)(CNC(=O)c1nc(C#N)c2cc(NC(=O)c3ccc(F)cc3)ccc2c1O)C(=O)O: 5.65
6. CC(C)(CC(=O)O)NC(=O)c1nc(C#N)c2cc(OCc3ccccc3)ccc2c1O: 4.35
7. O=C(O)CCNC(=O)c1nc(-c2ccccc2)c2cc(Oc3ccccc3)ccc2c1O: 6.4
8. CC(C)(CNC(=O)c1ncc2cc(-c3ccccc3)ccc2c1O)C(=O)O: 25.3

###

Form field: PHD2/PHD1 (one value per entry).
assaySystem: PHD1 (EGLN2) (Homo sapiens (Human))
assayName: HIF-PH assay (14CO2 capture), PHD1 enzyme inhibition
Assay type: biochemical
measurementContext: Table 1; ratio of the IC50 of the compound for each enzyme
reportedEndpoint: PHD2/PHD1

1. O=C(O)CCCCNC(=O)c1ncc2cc(Oc3ccccc3)ccc2c1O: 22
2. CC(C)(CNC(=O)c1nc(C#N)c2cc(Oc3ccccc3F)ccc2c1O)C(=O)O: 17
3. N#Cc1nc(C(=O)N[C@H](Cc2ccccc2)[C@H](O)C(=O)O)c(O)c2ccc(Oc3ccccc3)cc12: 5
4. CC(C)(CNC(=O)c1nc(C#N)c2cc(Cc3ccccc3)ccc2c1O)C(=O)O: 14
5. CCCC(CNC(=O)c1nc(C#N)c2cc(Oc3ccccc3)ccc2c1O)C(=O)O (stereo not drawn): 14
6. CC(C)(CC(=O)O)NC(=O)c1nc(C#N)c2cc(Oc3ccc(F)cc3)ccc2c1O: 16
7. N#Cc1nc(C(=O)NCCCCC(=O)O)c(O)c2ccc(Oc3ccc(F)cc3Cl)cc12: 14
8. N#Cc1nc(C(=O)N[C@@H](CC(=O)O)c2cccnc2)c(O)c2ccc(Oc3ccccc3)cc12: 6
9. CC(C)(CC(=O)O)NC(=O)c1nc(C#N)c2cc(Oc3ccccc3)ccc2c1O: 23
10. CC(C)(CNC(=O)c1nc(C#N)c2cc(OCc3ccccc3)ccc2c1O)C(=O)O: 12
11. CCC(CNC(=O)c1nc(C#N)c2cc(Oc3ccccc3)ccc2c1O)C(=O)O (stereo not drawn): 9
12. O=C(O)CCNC(=O)c1ncc2cc(Oc3cccnc3)ccc2c1O: 10
13. O=C(O)CCNC(=O)c1ncc2cc(NC(=O)Nc3ccccc3)ccc2c1O: 9
14. O=C(O)CCCCNC(=O)c1nc(-c2cncc(F)c2)c2cc(Oc3ccccc3)ccc2c1O: 15
15. N#Cc1nc(C(=O)NCC(CC(=O)O)c2ccc(Cl)cc2)c(O)c2ccc(Oc3ccccc3)cc12 (stereo not drawn): 12
16. CC(C)(CNC(=O)c1ncc2cc(-c3ccc(F)cc3)ccc2c1O)C(=O)O: 5
17. O=C(NCC[C@H](O)C(=O)O)c1ncc2cc(Oc3ccccc3)ccc2c1O: 17
18. N#Cc1nc(C(=O)N[C@H](CC(=O)O)c2cccnc2)c(O)c2ccc(Oc3ccccc3)cc12: 6
19. CC(C)(CNC(=O)c1nc(C#N)c2cc(-c3ccccc3)ccc2c1O)C(=O)O: 21
20. CC(C)(CC(=O)O)NC(=O)c1nc(C#N)c2cc(OCc3ccccc3)ccc2c1O: 13
21. N#Cc1nc(C(=O)NC[C@H](N)C(=O)O)c(O)c2ccc(Oc3ccccc3)cc12: 21
22. O=C(Nc1ccccc1)Nc1ccc2c(O)c(C(=O)NC[C@H](O)C(=O)O)ncc2c1: 11
23. N#Cc1nc(C(=O)NCCCCC(=O)O)c(O)c2ccc(Oc3ccccc3)cc12: 12
24. C[C@H](NC(=O)c1nc(C#N)c2cc(Oc3ccccc3)ccc2c1O)[C@@H](C)C(=O)O: 17
25. O=C(O)CCNC(=O)c1ncc2cc(NC(=O)c3ccc(F)cc3)ccc2c1O: 18
26. N#Cc1nc(C(=O)NCC2(C(=O)O)CC2)c(O)c2ccc(Oc3ccccc3)cc12: 9
27. N#Cc1nc(C(=O)NC(CC(=O)O)c2cccc(Cl)c2)c(O)c2ccc(Oc3ccccc3)cc12 (stereo not drawn): 19
28. O=C(O)CCNC(=O)c1ncc2cc(NC(=O)NC3CCCCC3)ccc2c1O: 8
29. O=C(O)CCCCNC(=O)c1ncc2cc(Oc3c(F)cccc3F)ccc2c1O: 9
30. N#Cc1nc(C(=O)NCC[C@@H](N)C(=O)O)c(O)c2ccc(Oc3ccccc3)cc12: 9
31. N#Cc1nc(C(=O)NC(CC(=O)O)c2cccnc2)c(O)c2ccc(Oc3ccccc3)cc12 (stereo not drawn): 6
32. C[C@@H](NC(=O)c1nc(C#N)c2cc(Oc3ccccc3)ccc2c1O)[C@@H](C)C(=O)O: 26
33. N#Cc1nc(C(=O)N[C@H]2CC[C@H](C(=O)O)CC2)c(O)c2ccc(Oc3ccccc3)cc12: 7
